B1: glmS ribozyme (parent)
chain: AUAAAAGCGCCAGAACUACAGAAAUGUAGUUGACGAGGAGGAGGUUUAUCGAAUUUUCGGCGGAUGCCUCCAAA

Variants of: B1
ASSAY_OVERVIEW: kcat; higher = faster cleavage; RNA array
TEST_SETTINGS: with glucosamine-6-phosphate
Variants at the floor of the assay were thinned out.
Note to self: values exactly at 0.0001 s⁻¹ are Criterion met. So kcat at or above 0.0001 s⁻¹ is Criterion met, below is Criterion not met.

Illustrative cases are given below, each with its answer.
AUAAAAGCGCCAGAACUACAGAAAUGUAGUUGACGAGGGCGAGGUUUAUCGAAUUUUCGGCGGAUGCCUCCAAA [A39G G40C]    Criterion not met
AUAAAUGCGCCAGACCUACAGAAAUGUAGUUGACGAGGAGGAGGUUUUUCGAAUUUUCGGCGGAUGCCGCCAAA [A6U A15C A48U U69G]    Criterion not met
AUAAAAGCGCCAUAACUACAGAAAUGUAGUUGACGAGGAGGAGGUAUAUCGAAUUUUCGGCGGAUGCCUCCAAA [G13U U46A]    Criterion not met
AUAAAAGCGCCAGAACUACAGAAAUGUAGUUGACGAGGAGGAGGAUUAUCGAAUUUUCGGCGGAUGCCUCCAAA [U45A]    Criterion met
AUAAAAGCGCCAGAACUACAGAAAUGUAGUUGAGGAGGAGGAGGUUUAUCGAAUUUUCGGCGGAUGCGUCCAAA [C34G C68G]    Criterion not met

Hello, I need to know if AUAAAAGCGCCAGCACUACAGAAAUGUAGUUGACGAGGAGGAGGUUUAUCGAAUUUUCGGCGGAAGCCUCCAAA [A14C U65A] has measured kcat not below 0.0001 s⁻¹. Thanks!
Criterion met

Hello, I need to know if AUAAAAGCGCCAGAACUACGGAAAUGUAGUUGACGACGAGGAGGUUUAUCGAAUUUUAGGCGGAUGCCUCCAAA [A20G G37C C58A] has measured kcat not below 0.0001 s⁻¹. Thanks!
Criterion not met

Hello, I need to know if AUAAAAGCGCCAGAACUACAGAAAUGUAGUUCACGAGGAGGAGGGUUAUCGAAUUUUCGGCGGAUGCCUCCAAA [G32C U45G] has measured kcat not below 0.0001 s⁻¹. Thanks!
Criterion not met
